The measurements presented in this section are drawn from paper PMC7395068.

- Tested on: hLiMTs
- experimental protocol: Combined HCI (HCS) and cellular ATP 3D assay in hLiMTs
- assay context: hLiMTs; all endpoints (ATP and HCS); cut-off <25x Avg Cmax
outcome measure: hLiMTs <25x Avg Cmax All

[[record]]
compound = "Cc1cc2c(cc1CC(=O)c1sccc1S(=O)(=O)Nc1onc(C)c1Cl)OCO2"
outcome_measure = "hLiMTs <25x Avg Cmax All"
value_measured = "+ve"

[[record]]
compound = "O=C1CC2(CCCC2)CC(=O)N1CCCCN1CCN(c2ncccn2)CC1 [buspirone, reference compound]"
outcome_measure = "hLiMTs <25x Avg Cmax All"
value_measured = "-ve"

[[record]]
compound = "CC/C(=C(\\c1ccccc1)c1ccc(OCCN(C)C)cc1)c1ccccc1"
outcome_measure = "hLiMTs <25x Avg Cmax All"
value_measured = "+ve"

[[record]]
compound = "CC(=O)N1CCN(c2ccc(OCC3COC(Cn4ccnc4)(c4ccc(Cl)cc4Cl)O3)cc2)CC1 (stereo not shown) [ketoconazole, reference compound]"
outcome_measure = "hLiMTs <25x Avg Cmax All"
value_measured = "+ve"

[[record]]
compound = "CNC1(C)C2CCC(C2)C1(C)C (stereo not shown)"
outcome_measure = "hLiMTs <25x Avg Cmax All"
value_measured = "-ve"


(Q) Hello, I am looking for reported hLiMTs <25x Avg Cmax All with hLiMTs for O=C1CN(/N=C/c2ccc([N+](=O)[O-])o2)C(=O)N1 [nitrofurantoin, reference compound] . Could you help?
(A) +ve

(Q) Test system hLiMTs; read-out hLiMTs <25x Avg Cmax All; what value for CC(C)(C)NCC(O)COc1cccc2c1CC(O)C(O)C2 (stereo not shown) ?
(A) -ve

(Q) Short answer please: hLiMTs <25x Avg Cmax All, hLiMTs, entry CCCC(CCC)C(=O)O
(A) +ve

(Q) Give the reported hLiMTs <25x Avg Cmax All for CC[C@H]1OC(=O)[C@H](C)[C@@H](O[C@H]2C[C@@](C)(OC)[C@@H](O)[C@H](C)O2)[C@H](C)[C@@H](O[C@@H]2O[C@H](C)C[C@H](N(C)C)[C@H]2O)[C@](C)(O)C[C@@H](C)C(=O)[C@H](C)[C@@H](O)[C@]1(C)O (system: hLiMTs).
(A) -ve
